Hey, just so you know, these numbers are from patent US10392404B2.

experimental-target: C-RAF (Homo sapiens, UniProt P04049, Y340E/Y341E)
Construct: His tag (implied by nickel chromatography) (cleaved yes); StrepII tag (cleaved yes); MEK1 substrate from E. coli
Sequence (P04049 whole entry Y340E/Y341E): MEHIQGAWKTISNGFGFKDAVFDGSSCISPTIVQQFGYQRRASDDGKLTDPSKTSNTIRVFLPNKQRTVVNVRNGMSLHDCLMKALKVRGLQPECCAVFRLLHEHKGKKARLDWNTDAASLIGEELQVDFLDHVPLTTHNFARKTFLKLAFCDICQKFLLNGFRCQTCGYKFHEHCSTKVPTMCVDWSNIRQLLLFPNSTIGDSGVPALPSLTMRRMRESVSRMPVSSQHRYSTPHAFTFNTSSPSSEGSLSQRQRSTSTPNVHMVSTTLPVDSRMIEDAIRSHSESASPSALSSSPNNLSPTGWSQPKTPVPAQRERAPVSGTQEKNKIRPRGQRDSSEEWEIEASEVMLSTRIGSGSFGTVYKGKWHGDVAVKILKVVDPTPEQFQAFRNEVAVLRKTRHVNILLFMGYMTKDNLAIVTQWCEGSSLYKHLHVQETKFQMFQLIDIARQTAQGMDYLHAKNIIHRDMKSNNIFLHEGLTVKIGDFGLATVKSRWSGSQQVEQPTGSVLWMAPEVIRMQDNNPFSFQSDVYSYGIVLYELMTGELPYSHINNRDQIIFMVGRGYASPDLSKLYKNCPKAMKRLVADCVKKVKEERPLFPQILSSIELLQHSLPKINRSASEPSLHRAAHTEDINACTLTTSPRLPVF
Sequence (P63104 whole entry partner): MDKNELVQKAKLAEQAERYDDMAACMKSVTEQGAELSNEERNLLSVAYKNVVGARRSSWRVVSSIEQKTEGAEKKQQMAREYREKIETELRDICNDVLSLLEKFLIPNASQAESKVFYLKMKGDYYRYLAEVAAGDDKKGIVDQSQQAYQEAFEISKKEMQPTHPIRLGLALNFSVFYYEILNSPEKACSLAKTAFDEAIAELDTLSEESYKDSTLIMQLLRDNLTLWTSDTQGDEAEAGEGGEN
protocol-text: In vitro Raf activity determination (Alpha Screen, biotinylated kinase-dead MEK1 substrate), C-Raf
measurement-context: c-Raf approximately 4 nM; ATP 1 μM; pre-incubation 60 minutes; reaction 1 hour at room temperature
observable: IC50 (nM)

COCCNc1ncc(-c2cc(NC(=O)c3cccc(C(F)F)c3)cnc2C)cc1C#N [Example 199] :: 0.386
Cc1ccc(NC(=O)c2ccnc(C(C)(C)C#N)c2)cc1-c1cnc(NC2CC2)c(C#N)c1 [Example 19] :: 0.397
COCCNc1ncc(-c2cc(NC(=O)c3ccnc(C(C)(C)O)c3)ccc2C)cc1C#N [Example 209] :: 0.777
Cc1ccc(NC(=O)c2cc(C(F)(F)F)ccn2)cc1-c1cnc(NC2CCOCC2)c(C#N)c1 [Example 226] :: 0.695

[P] CNc1ncc(-c2cc(NC(=O)c3ccnc(C(C)(C)C#N)c3)ccc2C)cc1C#N [Example 6]
[Q] Cc1ccc(NC(=O)c2ccnc(C(C)(C)C#N)c2)cc1-c1cnc(-c2cnn(C)c2)c(C#N)c1 [Example 125]
[R] Cc1ncc(NC(=O)c2ccnc(C(C)(C)C#N)c2)cc1-c1cnc(NC2CCOC2)c(C#N)c1 (stereo in doubt) [Example 78b]
[S] Cc1ccc(NC(=O)c2ccnc(C(F)(F)F)c2)cc1-c1cc(C#N)c(N)nc1C [Example 42]
// sort entries: IC50, high to low Return value: ordered labels per request.
R, S, P, Q
(R: 2.41 nM, S: 0.672 nM, P: 0.379 nM, Q: 0.254 nM)

[1] Cc1ccc(NC(=O)c2cc(C(C)(C)C#N)ccn2)cc1-c1cnc(N2CC(C)(O)C2)c(C#N)c1 [Example 232]
[2] COCCNc1ncc(-c2cc(NC(=O)c3ccnc(C(F)F)c3)cnc2C)cc1C#N [Example 196]
Smaller IC50 value, 1 vs 2 ? State the label of the item chosen.
1

* * *

experimental-target: b-Raf (V600E) (Homo sapiens, UniProt P15056, V600E)
Sequence (P15056 whole entry V600E): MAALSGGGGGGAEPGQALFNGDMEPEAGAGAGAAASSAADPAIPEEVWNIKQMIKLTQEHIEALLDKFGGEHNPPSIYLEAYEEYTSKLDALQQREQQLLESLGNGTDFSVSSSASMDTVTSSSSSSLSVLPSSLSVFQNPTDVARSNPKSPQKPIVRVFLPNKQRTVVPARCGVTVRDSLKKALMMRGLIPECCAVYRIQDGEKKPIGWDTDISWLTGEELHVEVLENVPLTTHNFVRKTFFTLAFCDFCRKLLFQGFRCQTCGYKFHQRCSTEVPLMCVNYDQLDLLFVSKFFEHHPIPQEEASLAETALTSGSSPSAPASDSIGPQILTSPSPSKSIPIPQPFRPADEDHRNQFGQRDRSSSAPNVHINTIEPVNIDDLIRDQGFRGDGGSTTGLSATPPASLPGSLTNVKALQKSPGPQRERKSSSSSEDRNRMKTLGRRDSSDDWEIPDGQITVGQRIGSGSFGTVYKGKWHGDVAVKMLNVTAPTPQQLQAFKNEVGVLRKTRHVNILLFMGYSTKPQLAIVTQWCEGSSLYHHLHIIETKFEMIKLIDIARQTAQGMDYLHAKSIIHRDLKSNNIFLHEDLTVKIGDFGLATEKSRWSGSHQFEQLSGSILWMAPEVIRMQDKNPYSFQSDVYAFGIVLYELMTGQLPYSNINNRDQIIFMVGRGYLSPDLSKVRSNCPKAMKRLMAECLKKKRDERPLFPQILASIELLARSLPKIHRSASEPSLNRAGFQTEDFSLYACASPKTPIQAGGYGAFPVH
protocol-text: In vitro Raf activity determination (Alpha Screen, biotinylated kinase-dead MEK1 substrate), B-Raf
measurement-context: b-Raf (V600E) approximately 4 pM; ATP 10 μM; pre-incubation 60 minutes; reaction 3 hours at room temperature
pIC50: −log10 of the molar value.
observable: pIC50

Cc1ccc(NC(=O)c2cnnc(C(F)(F)F)c2)cc1-c1cnc(NC2CCOCC2)c(C#N)c1 :: 9.24
Cc1ccc(NC(=O)c2ccnc(C(F)F)c2)cc1-c1cnc(N2CCOCC2)c(C#N)c1 :: 9.47
Cc1ncc(NC(=O)c2ccnc(C(F)(F)F)c2)cc1-c1cnc(-c2c(C)nn(C)c2C)c(C#N)c1 :: 7.75
Cc1ccc(NC(=O)c2ccnc(C3CC3)c2)cc1-c1cnc(N2CCOCC2)c(C#N)c1 :: 9.58
Cc1ncc(NC(=O)c2ccnc(C(C)(C)C#N)c2)cc1-c1cnc(N2C[C@H]3C[C@@H]2CO3)c(C#N)c1 :: 8.05

[a] Cc1ncc(NC(=O)c2ccnc(S(C)(=O)=O)c2)cc1-c1cnc(N(C)C)c(C#N)c1
[b] Cc1ncc(NC(=O)c2cccc(C(F)(F)F)c2)cc1-c1cnc(-c2ccncc2)c(C#N)c1
[c] Cc1ncc(NC(=O)c2cnnc(C(C)(C)C#N)c2)cc1-c1cnc(N2CCOCC2)c(C#N)c1
[d] Cc1ncc(NC(=O)c2ccnc(C(F)(F)F)c2)cc1-c1cnc(-n2ccccc2=O)c(C#N)c1
[e] Cc1ccc(NC(=O)c2ccnc(C(F)F)c2)cc1-c1cnc(NC2CCOCC2)c(C#N)c1
// sort entries: pIC50, high to low Return value: ordered labels per request.
e, b, c, a, d

[A] Cc1ncc(NC(=O)c2ccnc(C(C)(C)C#N)c2)cc1-c1cnc(NC2COC2)c(C#N)c1
[B] COCCNc1ncc(-c2cc(NC(=O)c3ccnc(C(F)F)c3)ccc2C)cc1C#N
Sorting by pIC50 in descending order, would A or B appear first? State the label of the item chosen.
B
